Target: human AhR (Homo sapiens, UniProt P35869)
Sequence (P35869 11-848): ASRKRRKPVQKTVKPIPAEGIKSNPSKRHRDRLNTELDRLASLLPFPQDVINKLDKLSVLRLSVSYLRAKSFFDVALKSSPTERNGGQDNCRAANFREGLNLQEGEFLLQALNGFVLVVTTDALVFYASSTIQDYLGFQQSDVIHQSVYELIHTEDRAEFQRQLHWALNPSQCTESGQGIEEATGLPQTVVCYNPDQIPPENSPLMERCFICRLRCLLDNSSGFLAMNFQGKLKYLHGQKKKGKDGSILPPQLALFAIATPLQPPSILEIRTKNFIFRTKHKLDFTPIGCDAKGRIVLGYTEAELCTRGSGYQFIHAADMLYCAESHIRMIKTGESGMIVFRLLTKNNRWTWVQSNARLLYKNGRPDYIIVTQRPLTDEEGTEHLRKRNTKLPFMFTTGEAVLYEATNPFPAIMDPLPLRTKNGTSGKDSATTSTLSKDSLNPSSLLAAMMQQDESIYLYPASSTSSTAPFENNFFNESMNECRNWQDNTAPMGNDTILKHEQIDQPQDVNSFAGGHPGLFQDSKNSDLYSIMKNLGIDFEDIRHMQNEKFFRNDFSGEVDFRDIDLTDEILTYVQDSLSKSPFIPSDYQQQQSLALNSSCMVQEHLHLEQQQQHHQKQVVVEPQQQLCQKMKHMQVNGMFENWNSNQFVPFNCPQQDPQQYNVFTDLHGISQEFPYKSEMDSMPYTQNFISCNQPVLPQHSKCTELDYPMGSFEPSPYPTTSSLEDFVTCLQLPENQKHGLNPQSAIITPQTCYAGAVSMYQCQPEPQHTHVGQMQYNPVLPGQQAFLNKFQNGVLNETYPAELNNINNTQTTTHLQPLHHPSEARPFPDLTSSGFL
Experiment: cyp1a1 promoter β-lactamase reporter gene assay for AhR activation (CYP1A1-bla-LS180 cells)
Attribute measured: EC50 (nM)
Give bare numbers, in nM.

Recorded results for 4 molecules are shown here.
                                   molecule  attribute_measured  measurement
0  O=C1c2[nH]c3ccccc3c2C(=O)c2[nH]c3ccccc3c21 [Compound 13, Indolo[3,2-b]carbazole-6,12-dione]                EC50           70
1  O=C(O)c1c2[nH]c3ccccc3c2cc2[nH]c3ccccc3c12                EC50          400
2    OCc1c2[nH]c3ccccc3c2cc2[nH]c3ccccc3c12                EC50          160
3  c1ccc2c(c1)[nH]c1cc3c(cc12)[nH]c1ccccc13 [ICZ (12), reference compound]                EC50           30

Read the next record carefully.
Name the recorded EC50 for `CCOC(=O)c1c2[nH]c3ccccc3c2cc2[nH]c3ccccc3c12` .
160
